Can you tell me inhibition for the items I'm about to list?
tested on: ABHD11; test: LYPLA1 inhibition and serine hydrolase selectivity, late-stage follow-up, fluorescence, gel-based ABPP, mouse proteome (AID 504520); conditions: FP-rhodamine fluorescence, at 0.75 µM, stronger effect = higher value;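 further: soluble proteome from BW5147 murine T cells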
The source made the active and inactive calls. How the calls were made is not given here.

Lookup: Please report inhibition for the following compound: O=C(N(c1ccccc1)c1cccc(Br)c1)n1ncc(C(O)(c2ccccc2)c2ccccc2)n1
Found: 100%

Lookup: Please report inhibition for the following compound: O=C(N(c1ccccc1)c1ccc(Br)cc1)n1ncc(C(O)(c2ccccc2)c2ccccc2)n1
Found: 100%

Lookup: Please report inhibition for the following compound: O=C(N(c1ccccc1)c1ccc2ccccc2c1)n1ncc(C(O)(c2ccccc2)c2ccccc2)n1
Found: 100%

Lookup: Please report inhibition for the following compound: O=C(N1CCCCC1)n1ncc(C(O)c2ccccc2)n1 (stereo not given)
Found: 100%

Lookup: Please report inhibition for the following compound: CC1CCN(C(=O)n2ncc(C(O)(c3ccccc3)c3ccccc3)n2)CC1
Found: 100%

Lookup: Please report inhibition for the following compound: COCCCC1CCCCN1C(=O)n1ncc(C(O)(c2ccccc2)c2ccccc2)n1 (stereo not given)
Found: 75%

Lookup: Please report inhibition for the following compound: CN(C(=O)n1ncc(C(O)(c2ccccc2)c2ccccc2)n1)c1ccccc1
Found: 75% (inactive)

Lookup: Please report inhibition for the following compound: O=C(OC(c1ccccc1)c1cnn(C(=O)N2CCCCC2)n1)N1CCCCC1 (stereo not given)
Found: 100%

Lookup: Please report inhibition for the following compound: COCC1CCCCN1C(=O)n1ncc(C(O)(c2ccccc2)c2ccccc2)n1 (stereo not given)
Found: 100%

Lookup: Please report inhibition for the following compound: CCC1CCCCN1C(=O)n1ncc(C(O)(c2ccccc2)c2ccccc2)n1 (stereo not given)
Found: 100%

----------
test system: ESD; assay: LYPLA1 inhibition and serine hydrolase selectivity, late-stage follow-up, fluorescence, gel-based ABPP, mouse proteome (AID 504520); details: FP-rhodamine fluorescence, at 0.75 µM, stronger effect = higher value;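 further: soluble proteome from BW5147 murine T cells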
attributeMeasured: inhibition (%)
Answer in %, number only, no unit symbol.

Lookup: Consider the compound COCCCC1CCCCN1C(=O)n1ncc(C(O)(c2ccccc2)c2ccccc2)n1 (stereo not given) tested on ESD; state its inhibition.
Found: 0

Lookup: Consider the compound O=C(N(c1ccccc1)c1ccccc1)n1ncc(-c2ccc(Oc3ccccc3)cc2)n1 tested on ESD; state its inhibition.
Found: 0

Lookup: Consider the compound O=C(N1CCCCC1)n1ncc(C(O)c2ccccc2)n1 (stereo not given) tested on ESD; state its inhibition.
Found: 0

Lookup: Consider the compound CC1CCN(C(=O)n2ncc(C(O)(c3ccccc3)c3ccccc3)n2)CC1 tested on ESD; state its inhibition.
Found: 0

Lookup: Consider the compound O=C(N(c1ccccc1)c1ccc2ccccc2c1)n1ncc(C(O)(c2ccccc2)c2ccccc2)n1 tested on ESD; state its inhibition.
Found: 0

Lookup: Consider the compound COCC1CCCCN1C(=O)n1ncc(C(O)(c2ccccc2)c2ccccc2)n1 (stereo not given) tested on ESD; state its inhibition.
Found: 0

Lookup: Consider the compound O=C(N1CCCC(Cc2ccccc2)C1)n1cc(C(O)(c2ccccc2)c2ccccc2)nn1 (stereo not given) tested on ESD; state its inhibition.
Found: 0

Lookup: Consider the compound COC1CCN(C(=O)n2ncc(C(O)(c3ccccc3)c3ccccc3)n2)CC1 tested on ESD; state its inhibition.
Found: 25

Lookup: Consider the compound O=C(N1CCCCC1)n1ncc(C(O)(c2ccccc2)c2ccccc2)n1 tested on ESD; state its inhibition.
Found: 25

Lookup: Consider the compound CCC1CCCCN1C(=O)n1ncc(C(O)(c2ccccc2)c2ccccc2)n1 (stereo not given) tested on ESD; state its inhibition.
Found: 0

Lookup: Consider the compound O=C(OC(c1ccccc1)c1cnn(C(=O)N2CCCCC2)n1)N1CCCCC1 (stereo not given) tested on ESD; state its inhibition.
Found: 50

Lookup: Consider the compound COc1ccc2cc(-c3cnn(C(=O)N(c4ccccc4)c4ccccc4)n3)ccc2c1 tested on ESD; state its inhibition.
Found: 0

Lookup: Consider the compound O=C(N(c1ccccc1)c1ccccc1)n1ncc(-c2cc(F)cc(F)c2)n1 tested on ESD; state its inhibition.
Found: 0

Lookup: Consider the compound CC(C)CC(O)(CC(C)C)c1cnn(C(=O)N(c2ccccc2)c2ccccc2)n1 tested on ESD; state its inhibition.
Found: 0

Lookup: Consider the compound O=C(N(c1ccccc1)c1ccccc1)n1ncc(-c2ccc(-c3ccccc3)cc2)n1 tested on ESD; state its inhibition.
Found: 0

Lookup: Consider the compound O=C(N(c1ccccc1)c1ccc(Br)cc1)n1ncc(C(O)(c2ccccc2)c2ccccc2)n1 tested on ESD; state its inhibition.
Found: 0

Lookup: Consider the compound CN(C(=O)n1ncc(C(O)(c2ccccc2)c2ccccc2)n1)c1ccccc1 tested on ESD; state its inhibition.
Found: 0

Lookup: Consider the compound O=C(N(c1ccccc1)c1cccc(Br)c1)n1ncc(C(O)(c2ccccc2)c2ccccc2)n1 tested on ESD; state its inhibition.
Found: 0

Lookup: Consider the compound O=C(N(c1ccccc1)c1ccccc1)n1ncc(C(O)(c2ccccc2)c2ccccc2)n1 tested on ESD; state its inhibition.
Found: 0

Lookup: Consider the compound O=C(N1CCc2ccccc2C1)n1ncc(C(O)(c2ccccc2)c2ccccc2)n1 tested on ESD; state its inhibition.
Found: 25

----------
Can you tell me inhibition for the items I'm about to list?
test system: LYPLA1; experiment: LYPLA1 inhibition and serine hydrolase selectivity, late-stage follow-up, fluorescence, gel-based ABPP, mouse proteome (AID 504520); details: FP-rhodamine fluorescence, at 0.75 µM, stronger effect = higher value;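 further: soluble proteome from BW5147 murine T cells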
Answer in %, number only, no unit symbol.

Lookup: Please report inhibition for the following molecule: COC1CCN(C(=O)n2ncc(C(O)(c3ccccc3)c3ccccc3)n2)CC1
Found: 100

Lookup: Please report inhibition for the following molecule: COc1ccc2cc(-c3cnn(C(=O)N(c4ccccc4)c4ccccc4)n3)ccc2c1
Found: 0

Lookup: Please report inhibition for the following molecule: COCC1CCCCN1C(=O)n1ncc(C(O)(c2ccccc2)c2ccccc2)n1 (centres undefined)
Found: 0

Lookup: Please report inhibition for the following molecule: CN(C(=O)n1ncc(C(O)(c2ccccc2)c2ccccc2)n1)c1ccccc1
Found: 0

Lookup: Please report inhibition for the following molecule: O=C(N(c1ccccc1)c1ccc(Br)cc1)n1ncc(C(O)(c2ccccc2)c2ccccc2)n1
Found: 0

Lookup: Please report inhibition for the following molecule: O=C(N1CCCCC1)n1ncc(C(O)(c2ccccc2)c2ccccc2)n1
Found: 100

Lookup: Please report inhibition for the following molecule: CC1CCN(C(=O)n2ncc(C(O)(c3ccccc3)c3ccccc3)n2)CC1
Found: 100

Lookup: Please report inhibition for the following molecule: O=C(N(c1ccccc1)c1ccc2ccccc2c1)n1ncc(C(O)(c2ccccc2)c2ccccc2)n1
Found: 0

Lookup: Please report inhibition for the following molecule: CC(C)CC(O)(CC(C)C)c1cnn(C(=O)N(c2ccccc2)c2ccccc2)n1
Found: 0

Lookup: Please report inhibition for the following molecule: O=C(N1CCc2ccccc2C1)n1ncc(C(O)(c2ccccc2)c2ccccc2)n1
Found: 50

Lookup: Please report inhibition for the following molecule: O=C(N(c1ccccc1)c1ccccc1)n1ncc(-c2ccc(-c3ccccc3)cc2)n1
Found: 0

Lookup: Please report inhibition for the following molecule: O=C(N1CCCC(Cc2ccccc2)C1)n1cc(C(O)(c2ccccc2)c2ccccc2)nn1 (centres undefined)
Found: 100

Lookup: Please report inhibition for the following molecule: O=C(N(c1ccccc1)c1cccc(Br)c1)n1ncc(C(O)(c2ccccc2)c2ccccc2)n1
Found: 0

Lookup: Please report inhibition for the following molecule: O=C(N(c1ccccc1)c1ccccc1)n1ncc(-c2ccc(Oc3ccccc3)cc2)n1
Found: 0

----------
Can you tell me inhibition for the items I'm about to list?
test system: ABHD11; test: LYPLA1 inhibition and serine hydrolase selectivity, late-stage follow-up, fluorescence, gel-based ABPP, mouse proteome (AID 504520); conditions: FP-rhodamine fluorescence, inhibition, at 0.03 µM, stronger effect = higher value;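 further: soluble proteome from BW5147 murine T cells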
Answer in %, number only, no unit symbol.

Lookup: Please report inhibition for the following molecule: O=C(N1CCCCC1)n1ncc(C(O)c2ccccc2)n1 (stereo not given)
Found: 75

Lookup: Please report inhibition for the following molecule: O=C(N1CCc2ccccc2C1)n1ncc(C(O)(c2ccccc2)c2ccccc2)n1
Found: 100

Lookup: Please report inhibition for the following molecule: COCCCC1CCCCN1C(=O)n1ncc(C(O)(c2ccccc2)c2ccccc2)n1 (stereo not given)
Found: 0

Lookup: Please report inhibition for the following molecule: O=C(N(c1ccccc1)c1ccccc1)n1ncc(-c2ccc(Oc3ccccc3)cc2)n1
Found: 0

Lookup: Please report inhibition for the following molecule: O=C(OC(c1ccccc1)c1cnn(C(=O)N2CCCCC2)n1)N1CCCCC1 (stereo not given)
Found: 100

Lookup: Please report inhibition for the following molecule: COCC1CCCCN1C(=O)n1ncc(C(O)(c2ccccc2)c2ccccc2)n1 (stereo not given)
Found: 100

Lookup: Please report inhibition for the following molecule: COc1ccc2cc(-c3cnn(C(=O)N(c4ccccc4)c4ccccc4)n3)ccc2c1
Found: 0

Lookup: Please report inhibition for the following molecule: O=C(N(c1ccccc1)c1ccccc1)n1ncc(-c2cc(F)cc(F)c2)n1
Found: 0

Lookup: Please report inhibition for the following molecule: CC1CCN(C(=O)n2ncc(C(O)(c3ccccc3)c3ccccc3)n2)CC1
Found: 100

Lookup: Please report inhibition for the following molecule: O=C(N(c1ccccc1)c1ccc2ccccc2c1)n1ncc(C(O)(c2ccccc2)c2ccccc2)n1
Found: 0

Attribution: PubChem BioAssay AID504520
